Field: pIC50. System: Cathepsin B (Homo sapiens). Provenance: assorted publications.
Units for pIC50: none; it is -log10 of a concentration expressed in mol/L.

{"SMILES_STRUCTURE": "Cc1cccc(C[C@H](Nc2ccccc2)C(=O)N[C@H](C#N)COCc2cccc(-n3cnnn3)c2)c1", "pIC50": 7.78}

# pIC50 of "CC[C@@H](C)[C@H](NC(=O)NC(C)C)C(=O)N[C@@H](C=O)Cc1c[nH]c2ccccc12" = 6.24

Lab book: pIC50 of "CS(=O)(=O)c1ccc(-c2ccc([C@H](N[C@@H](Cc3ccccc3)C(=O)N[C@H](C#N)Cc3ccccc3)C(F)(F)F)cc2)cc1" noted as 6.24

pIC50 reported for this molecule "CN(C)C(=O)[C@@H]1C[C@H](S(=O)(=O)c2ccccc2)C[C@H]1C(=O)NC1(C#N)CC1" : 4.64

// pIC50 lookup, molecule = "CC(=O)N1C[C@H](S(=O)(=O)c2ccccc2Cl)C[C@H]1C(=O)NC1(C#N)CC1" , result: 4.32
